Target: PACAP-R2 (Homo sapiens)
Construct: expressed in transfected cells; host or cells: CHO cells
Sequence (P32241 31-457): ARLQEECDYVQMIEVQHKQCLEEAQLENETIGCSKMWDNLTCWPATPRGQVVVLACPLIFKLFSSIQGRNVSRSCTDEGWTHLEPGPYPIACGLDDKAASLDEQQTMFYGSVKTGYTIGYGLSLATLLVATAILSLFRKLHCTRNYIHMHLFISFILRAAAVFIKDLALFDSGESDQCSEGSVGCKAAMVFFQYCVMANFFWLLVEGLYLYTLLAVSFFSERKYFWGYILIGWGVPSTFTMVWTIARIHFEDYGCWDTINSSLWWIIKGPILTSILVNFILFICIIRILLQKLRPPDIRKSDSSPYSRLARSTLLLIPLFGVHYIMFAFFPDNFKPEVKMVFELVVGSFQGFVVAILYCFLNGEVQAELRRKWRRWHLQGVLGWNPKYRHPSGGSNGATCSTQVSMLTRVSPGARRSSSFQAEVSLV
Test: Cyclic AMP SPA on CHO cells transfected with PACAP-R2
Type: cell-based
Conditions: cAMP SPA, concentration at which 50% of maximum PACAP27 activity is achieved, NA = no detectable activities, read-out: R2 EC50
No end group written: not given here.
For each record, write down the corresponding pEC50.
Convention used: pEC50 is expressed as -log10 of the molar concentration.

Task: If you can, please state the reported pEC50 value of HSDAVFTDNYTRLRKQVAAKKYLQSILKK [Peptide R3P85] .
Output: 8.30

Task: If you can, please state the reported pEC50 value of HSDAVFTDNYTRLRKQMAAKKYLNSIKNVR [Peptide R3P150] .
Output: 7.40

Task: If you can, please state the reported pEC50 value of HSDGIFTDSYSRYEKQMAVKKYLAAVL-NH2 [PAC14] .
Output: 6.96

Task: If you can, please state the reported pEC50 value of HSDAVFTDNYTRLRKQVAAKKYLQSILNKRY [Peptide R3P92] .
Output: 8.70

Task: If you can, please state the reported pEC50 value of HSDAVFTDNYTRLRKQMARKKYLNSIKNRI [rR3P177] .
Output: 6.96

----------
target: PACAP-R3 (Homo sapiens); test: Cyclic AMP SPA on CHO cells expressing PACAP R3; type: cell-based; design: expressed in transfected cells; host or cells: CHO cells (Geneticin selection); conditions: ratio of EC50 at R2 versus EC50 at R3
Sequence (P41587 24-438): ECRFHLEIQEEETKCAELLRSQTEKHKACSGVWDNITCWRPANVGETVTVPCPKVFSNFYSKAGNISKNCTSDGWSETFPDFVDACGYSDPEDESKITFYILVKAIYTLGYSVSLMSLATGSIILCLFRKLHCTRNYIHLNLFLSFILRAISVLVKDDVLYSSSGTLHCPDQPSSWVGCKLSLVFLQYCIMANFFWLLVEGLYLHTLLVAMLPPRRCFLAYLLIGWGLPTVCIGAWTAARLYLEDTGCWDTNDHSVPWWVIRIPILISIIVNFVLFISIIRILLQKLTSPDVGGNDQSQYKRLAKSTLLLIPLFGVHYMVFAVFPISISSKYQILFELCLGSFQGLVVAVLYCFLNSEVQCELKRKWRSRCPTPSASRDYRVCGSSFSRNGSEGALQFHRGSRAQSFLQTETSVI
No end group written: not given here.
Field: class. Source value: R3 Selectivity. Ranges: category 1 (below 20), category 2 (20 to below 100), category 3 (100 or more)

Task: The entry to classify is HSDAVFTDNYTRLRKQMASKKYLNSIQNRI [rR3P188] ; which class holds it?
Output: category 2

Task: The entry to classify is H-HSDAVFTDNYTRLRKQMAAKHYLNSIKNKRY [Peptide R3P74] ; which class holds it?
Output: category 3

Task: The entry to classify is H-HSDGIFTDSYSRYRKQMAVKKYLAAVKQGGT-NH2 [Peptide R3P16] ; which class holds it?
Output: category 1

Task: The entry to classify is HSDAVFTDNYTRLRKQVAAKKYLQSIKKKR [Peptide R3P77] ; which class holds it?
Output: category 3

Task: The entry to classify is HSDAVFTDNYTRLRKQVAVKKYLQSILKKRY [Peptide R3P87] ; which class holds it?
Output: category 1

Task: The entry to classify is HSDAVFTDNYTRLRKQLAAKKYLNSIKKGGT [Peptide R3P22] ; which class holds it?
Output: category 2

Task: The entry to classify is HSDAVFTDNYTRLRKQLAAKKYLNDILKGGT [Peptide R3P23] ; which class holds it?
Output: category 2

Task: The entry to classify is HSDGIFTDKYSRYRKQMAVKKYLAAVL-NH2 [PAC9] ; which class holds it?
Output: category 1

Task: The entry to classify is HSDAVFTDNYTRLRKQMAAKKYLNSIKNKF [Peptide R3P157] ; which class holds it?
Output: category 3

Task: The entry to classify is HSDAVFTDNYTRLRKQVAAKKYLQSIKNK [Peptide R3P86] ; which class holds it?
Output: category 3

Task: The entry to classify is HSDGIFTKSYSRYRKQMAVKKYLAAVL-NH2 [PAC8] ; which class holds it?
Output: category 1

Task: The entry to classify is HSDGIFTDSYSRYRKQMAVEKYLAAVL-NH2 [PAC20] ; which class holds it?
Output: category 2

Task: The entry to classify is HSDAVFTDNYTRLRKQLAAKKYLNDILNGGT [Peptide R3P27] ; which class holds it?
Output: category 1

Task: The entry to classify is H-HSDAVFTDNYTRLRKQMAAKKYLNSISNKR [Peptide R3P129] ; which class holds it?
Output: category 2

Task: The entry to classify is HSDAVFTDNYTRLRKQMAAKKYLNSIKKK [Peptide R3P54] ; which class holds it?
Output: category 3

Task: The entry to classify is HSDGIFTDSYSRYRKQMAVKKYLAAVK-NH2 [PAC27] ; which class holds it?
Output: category 1

Task: The entry to classify is H-HSDAVFTDNYTRLRKQLAVKKYLNDIKKGGT-OH [Peptide R3P21] ; which class holds it?
Output: category 2

Task: The entry to classify is HSDAVFTDNYTRLRKQMAAKKYLNSIKKGGT [Peptide R3P26] ; which class holds it?
Output: category 3

Task: The entry to classify is HSDAVFTDNYTRLRKQMAAKKYLNSIKNKI [Peptide R3P160] ; which class holds it?
Output: category 3

Task: The entry to classify is HSDAVFTDNYTRLRKQMAAKKYLQSIKNKRY [Peptide R3P69] ; which class holds it?
Output: category 3

Task: The entry to classify is H-HSDGIFTDSYSRYRKQLAAKKYLADVKKGGT [Peptide R3P37] ; which class holds it?
Output: category 1

Task: The entry to classify is HSDAVFTDNYTRLRKQMAAKKYLNSIKNDR [Peptide R3P136] ; which class holds it?
Output: category 2

Task: The entry to classify is HSDAVFTDNYTRLRKQMAAKKYLNSIPNKR [Peptide R3P126] ; which class holds it?
Output: category 3

Task: The entry to classify is HSDGIFTDSYSRYRKQMAVKEYLAAVL-NH2 [PAC21] ; which class holds it?
Output: category 1

Task: The entry to classify is HSDAVFTDNYTRLRKQVAVKKYLQSILKK [Peptide R3P89] ; which class holds it?
Output: category 1

Task: The entry to classify is HSDAVFTDNYTRLRKQMARKKYLNSIPNRI [rR3P182] ; which class holds it?
Output: category 2

Task: The entry to classify is HSDAVFTDNYTRLRKQMAGKKYLNSIKNRI [rR3P175] ; which class holds it?
Output: category 3

Task: The entry to classify is HSDGIFTDSYSRKRKQMAVKKYLAAVL-NH2 [PAC13] ; which class holds it?
Output: category 1

Task: The entry to classify is HSDAVFTDNYTRLRKQVAAKKYLQSILNKR [Peptide R3P93] ; which class holds it?
Output: category 2

Task: The entry to classify is HSDGIFTDSYSRYRKQLAAKKYLADVKK [Peptide R3P38] ; which class holds it?
Output: category 1

Task: The entry to classify is H-HSDAVFTDNYTRLRKQMAAKKYLNSIKNKRY [Peptide R3P55] ; which class holds it?
Output: category 3

Task: The entry to classify is HSDAVFTDNYTRLRKQVAAKKYLQSILKKR [Peptide R3P84] ; which class holds it?
Output: category 2

Task: The entry to classify is HSDAVFTDNYTRLRKQMAAKKYLNSIKNRR [Peptide R3P147] ; which class holds it?
Output: category 3

Task: The entry to classify is HSDGIFTDSYSRYRKQMAVKKKLAAVL-NH2 [PAC22] ; which class holds it?
Output: category 1
